Catalogue of MIC values
system: K. pneumoniae MP-546; assay: MIC determination by CLSI broth dilution, K. pneumoniae MP-546; type: cell-based; details: Klebsiella pneumoniae, MP546, CLSI broth dilution; strain MP-546
readout_name: MIC

- CO[C@]1(C)C[C@@H](C)CN(C)[C@H](CC2CCN(C3CC3)CC2)COC(=O)C(C)(C)C(=O)[C@H](C)[C@H]1O[C@@H]1O[C@H](C)C[C@H](N(C)C)[C@H]1O [Compound 63]: < 4 µg/mL
- CO[C@]1(C)C[C@@H](C)CN(C)[C@@H](CC2CCN(CC[C@@H](C)CCC=C(C)C)CC2)COC(=O)C(C)(C)C(=O)[C@H](C)[C@H]1O[C@@H]1O[C@H](C)C[C@H](N(C)C)[C@H]1O [Compound 71]: > 32 µg/mL
- CCN(C)CC[C@@H](O)[C@@H]1COC(=O)C(C)(C)C(=O)[C@H](C)[C@@H](O[C@@H]2O[C@H](C)C[C@H](N(C)C)[C@H]2O)[C@](C)(OC)C[C@@H](C)CN1CC [Compound 168]: 4 to 32 µg/mL
- CCN1C[C@H](C)C[C@@](C)(OC)[C@H](O[C@@H]2O[C@H](C)C[C@H](N(C)C)[C@H]2O)[C@@H](C)C(=O)C(C)(C)C(=O)OC[C@@H]1CCCN1CCCCC1 [Compound 129]: < 4 µg/mL
- CCN1C[C@H](C)C[C@@](C)(OC)[C@H](O[C@@H]2O[C@H](C)C[C@H](N(C)C)[C@H]2O)[C@@H](C)C(=O)C(C)(C)C(=O)OC[C@H]1CC1CCN(C)CC1 [Compound 98]: < 4 µg/mL
- CCN1C[C@H](C)C[C@@](C)(OC)[C@H](O[C@@H]2O[C@H](C)C[C@H](N(C)C)[C@H]2O)[C@@H](C)C(=O)C(C)(C)C(=O)OC[C@H]1CCCN1CCCCC1 [Compound 140]: < 4 µg/mL
- CO[C@]1(C)C[C@@H](C)CN(C)[C@@H](C(=O)N2CCN(CC(F)(F)F)CC2)[C@H](C)OC(=O)C(C)(C)C(=O)[C@H](C)[C@H]1O[C@@H]1O[C@H](C)C[C@H](N(C)C)[C@H]1O [Compound 130]: > 32 µg/mL
- CO[C@]1(C)C[C@@H](C)CN(C)[C@@H](CC2CCN(CC3CC=CCC3)CC2)COC(=O)C(C)(C)C(=O)[C@H](C)[C@H]1O[C@@H]1O[C@H](C)C[C@H](N(C)C)[C@H]1O (stereo partly shown) [Compound 73]: < 4 µg/mL
- CO[C@]1(C)C[C@@H](C)CN(C)[C@@H](CCCN2CCOCC2)COC(=O)C(C)(C)C(=O)[C@H](C)[C@H]1O[C@@H]1O[C@H](C)C[C@H](N(C)C)[C@H]1O [Compound 105]: 4 to 32 µg/mL
- CCCN1C[C@H](C)C[C@@](C)(OC)[C@H](O[C@@H]2O[C@H](C)C[C@H](N(C)C)[C@H]2O)[C@@H](C)C(=O)C(C)(C)C(=O)OC[C@H]1CCCN1CCc2ncncc2C1 [Compound 182]: 4 to 32 µg/mL
